Values compiled from ChEMBL document CHEMBL1123304.

Kindly supply the reported EDmin values for the records listed here.
# Organism: Felis catus
# PROTOCOL: Compound was tested for potentiating the dopamine-induced hypotension in cats.
# Assay type: functional
Form entry: value (mg/kg) — number only.

Endpoint output: EDmin of CCOC(=O)Nc1cccc2c1CN(C)CC2c1ccc(Cl)cc1 (centres undefined) . Value? 0.5

What would you report for CCNCC(=O)Nc1cccc2c1CN(C)CC2c1ccccc1 (centres undefined) ? 2

Next: CCCCNC(=O)Nc1cccc2c1CN(C)CC2c1ccccc1 (centres undefined) 2

Can you check CC(C)NCCC(=O)Nc1cccc2c1CN(C)CC2c1ccccc1 (centres undefined) next? 2

---

# System: Mus musculus
# PROTOCOL: Inhibition of tetrabenazine ptosis in mice (sc).
# Type: functional
ATTRIBUTE_MEASURED: log10 ED50 (log10 of the value in mg/kg)
On a log10 scale: recorded ED50, unit mg/kg.

Any idea what its log10 ED50 is? The compound is CN1Cc2c(N)cccc2C(c2ccc(Cl)cc2)C1 (configuration not stated) 0.04

Can you handle CCCCNCC(=O)Nc1cccc2c1CN(C)CC2c1ccc(Cl)cc1 (configuration not stated) next? 0.59

Follow-up item: CCNC(=O)Nc1cccc2c1CN(C)CC2c1ccccc1 (configuration not stated) 1.73

What do you have for CN1Cc2c(N)cccc2C(c2ccc(F)cc2)C1 (configuration not stated) ? -0.60

Can you check CCOC(=O)Nc1cccc2c1CN(C)CC2c1ccc(F)cc1 (configuration not stated) next? 0.52

Try CCCCOC(=O)Nc1cccc2c1CN(C)CC2c1ccccc1 (configuration not stated) next. 0.41
